Listed here are compounds together with their documented IC50.
- tested target: 3',5'-cyclic-AMP phosphodiesterase 4D (Homo sapiens)
- assay overview: Inhibition of human PDE4D2 catalytic domain (86 to 413 amino acids) expressed in Escherichia coli strain BL21 after 15 mins using [3H]-cAMP by liquid scintillation counting
readout: IC50 (µM)

compound: CCC(CC[C@@H](/C=C/[C@@H]1[C@@H](C/C=C\CCCC(=O)OC)[C@@H](OC(C)=O)C[C@H]1OC(C)=O)OC(C)=O)OC(C)=O (stereo partly drawn)
readout: IC50
output unit: µM
measurement: 3.7

compound: CCC(CC[C@@H](/C=C/[C@@H]1[C@@H](C/C=C\CCCC(=O)OC)[C@@H](OC(=O)[C@@](OC)(c2ccccc2)C(F)(F)F)C[C@H]1OC(C)=O)OC(=O)[C@@](OC)(c1ccccc1)C(F)(F)F)OC(C)=O (stereo partly drawn)
readout: IC50
output unit: µM
measurement: 5.9

compound: CCCCC[C@@H](/C=C/[C@@H]1[C@@H](/C=C/CCCCC(=O)OC)[C@@H](O)C[C@H]1OC(C)=O)OC(C)=O
readout: IC50
output unit: µM
measurement: 7.2

====

Examples of compounds with documented inhibition follow.
- tested target: 3',5'-cyclic-AMP phosphodiesterase 4D (Homo sapiens)
- assay overview: Inhibition of human PDE4D2 catalytic domain (86 to 413 amino acids) expressed in Escherichia coli strain BL21 at 10 uM after 15 mins using [3H]-cAMP by liquid scintillation counting
readout: inhibition (%)

compound: CCCCC[C@@H](/C=C/[C@@H]1[C@@H](C/C=C\CCCC(=O)OC)[C@@H](OC(C)=O)C[C@H]1O)OC(C)=O
measurement: 74.7
//
compound: CCC(CC[C@@H](/C=C/[C@@H]1[C@@H](C/C=C\CCCC(=O)OC)[C@@H](OC(=O)[C@](OC)(c2ccccc2)C(F)(F)F)C[C@H]1OC(C)=O)OC(=O)[C@](OC)(c1ccccc1)C(F)(F)F)OC(C)=O (some centres undefined)
measurement: 58
//
compound: CCC(CC[C@H](O)/C=C/[C@@H]1[C@@H](C/C=C\CCCC(=O)OC)[C@@H](OC(C)=O)C[C@H]1OC(C)=O)OC(C)=O (some centres undefined)
measurement: 11.4
//
compound: CCC(=O)CC[C@@H](/C=C/[C@@H]1[C@@H](C/C=C\CCCC(=O)OC)[C@@H](O)C[C@H]1OC(C)=O)OC(C)=O
measurement: 57.2

====

Recorded inhibition by entry
- tested target: 3',5'-cyclic-AMP phosphodiesterase 4D (Homo sapiens, UniProt Q08499)
- Sequence (Q08499 whole entry, the tested form may be a part): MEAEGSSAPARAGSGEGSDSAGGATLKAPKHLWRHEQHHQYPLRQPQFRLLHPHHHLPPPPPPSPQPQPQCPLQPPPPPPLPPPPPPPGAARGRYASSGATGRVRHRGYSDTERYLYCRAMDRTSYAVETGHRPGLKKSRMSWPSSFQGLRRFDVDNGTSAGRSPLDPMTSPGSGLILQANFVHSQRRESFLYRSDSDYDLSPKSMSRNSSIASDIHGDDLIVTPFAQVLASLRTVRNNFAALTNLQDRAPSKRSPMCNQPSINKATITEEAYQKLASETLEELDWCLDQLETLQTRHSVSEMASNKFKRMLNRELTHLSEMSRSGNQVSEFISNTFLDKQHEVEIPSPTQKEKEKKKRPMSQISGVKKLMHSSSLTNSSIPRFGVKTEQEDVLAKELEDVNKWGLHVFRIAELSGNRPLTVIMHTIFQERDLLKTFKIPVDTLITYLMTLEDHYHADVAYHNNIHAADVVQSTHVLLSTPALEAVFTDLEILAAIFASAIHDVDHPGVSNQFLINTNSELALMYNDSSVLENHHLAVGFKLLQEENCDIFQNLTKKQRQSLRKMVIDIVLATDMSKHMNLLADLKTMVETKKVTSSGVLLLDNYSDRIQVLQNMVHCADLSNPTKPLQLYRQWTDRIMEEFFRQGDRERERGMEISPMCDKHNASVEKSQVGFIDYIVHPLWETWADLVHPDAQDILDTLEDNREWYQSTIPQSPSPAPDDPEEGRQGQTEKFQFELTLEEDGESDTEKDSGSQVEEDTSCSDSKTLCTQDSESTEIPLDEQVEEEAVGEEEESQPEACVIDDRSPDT
- assay overview: Inhibition of human PDE4D2 catalytic domain (86 to 413 amino acids) expressed in Escherichia coli strain BL21 at 10 uM after 15 mins using [3H]-cAMP by liquid scintillation counting

molecule: CCC(CC[C@@H](/C=C/[C@@H]1[C@@H](C/C=C\CCCC(=O)OC)[C@@H](OC(=O)[C@@](OC)(c2ccccc2)C(F)(F)F)C[C@H]1OC(C)=O)OC(=O)[C@@](OC)(c1ccccc1)C(F)(F)F)OC(C)=O (stereo partly drawn)
output unit: %
inhibition: 51.1
--
molecule: CCC(=O)CC[C@H](O)/C=C/[C@@H]1[C@@H](C/C=C\CCCC(=O)O)[C@@H](O)C[C@H]1O
output unit: %
inhibition: 10.1
--
molecule: CCC(CC[C@H](O)/C=C/[C@@H]1[C@@H](C/C=C\CCCC(=O)O)[C@@H](O)C[C@H]1OC(C)=O)OC(C)=O (stereo partly drawn)
output unit: %
inhibition: 3.12

====

# log10 of IC50 per entry
- tested target: 3',5'-cyclic-AMP phosphodiesterase 4D (Homo sapiens, UniProt Q08499)
- assay overview: Inhibition of human PDE4D2 catalytic domain (86 to 413 amino acids) expressed in Escherichia coli strain BL21 after 15 mins using [3H]-cAMP by liquid scintillation counting
readout: log10 of IC50 (log10 of the value in µM)

compound: CCC(CC[C@@H](/C=C/[C@@H]1[C@@H](C/C=C\CCCC(=O)OC)[C@@H](OC(=O)[C@](OC)(c2ccccc2)C(F)(F)F)C[C@H]1OC(C)=O)OC(=O)[C@](OC)(c1ccccc1)C(F)(F)F)OC(C)=O (some centres not stated)
log10 of IC50: 0.56
--
compound: CCC(=O)CC[C@@H](/C=C/[C@@H]1[C@@H](C/C=C\CCCC(=O)OC)[C@@H](OC(C)=O)C[C@H]1OC(C)=O)OC(C)=O
log10 of IC50: 1.03
--
compound: CCC(=O)CC[C@@H](/C=C/[C@@H]1[C@@H](C/C=C\CCCC(=O)O)[C@@H](O)C[C@H]1OC(C)=O)OC(C)=O
log10 of IC50: 1.23
--
compound: CCCCC[C@@H](/C=C/[C@@H]1[C@@H](C/C=C\CCCC(=O)OC)[C@@H](O)C[C@H]1OC(C)=O)OC(C)=O
log10 of IC50: 0.74
--
compound: CCC(=O)CC[C@@H](/C=C/[C@@H]1[C@@H](C/C=C\CCCC(=O)OC)[C@@H](O)C[C@H]1OC(C)=O)OC(C)=O
log10 of IC50: 1.08
--
compound: CCCCC[C@@H](/C=C/[C@@H]1[C@@H](C/C=C\CCCC(=O)OC)[C@@H](OC(C)=O)C[C@H]1O)OC(C)=O
log10 of IC50: 0.67
--
compound: CCCCC[C@@H](/C=C/[C@@H]1[C@@H](C/C=C\CCCC(=O)OC)[C@@H](OC(C)=O)C[C@H]1OC(C)=O)OC(C)=O
log10 of IC50: 0.15

====

- tested target: 3',5'-cyclic-AMP phosphodiesterase 4D (Homo sapiens)
- assay overview: Inhibition of human PDE4D2 catalytic domain (86 to 413 amino acids) expressed in Escherichia coli strain BL21 at 10 uM after 15 mins using [3H]-cAMP by liquid scintillation counting
Threshold rule: inhibition greater than or equal to 60% is Yes; below that, No.

compound: CCC(=O)CC[C@H](O)/C=C/[C@@H]1[C@@H](C/C=C\CCCC(=O)O)[C@@H](O)C[C@H]1OC(C)=O
classification: No

compound: CCC(=O)CC[C@@H](/C=C/[C@@H]1[C@@H](C/C=C\CCCC(=O)OC)[C@@H](OC(C)=O)C[C@H]1OC(C)=O)OC(C)=O
classification: Yes

compound: CCC(=O)CC[C@H](O)/C=C/[C@@H]1[C@@H](C/C=C\CCCC(=O)OC)[C@@H](O)C[C@H]1OC(C)=O
classification: No

compound: CCCCC[C@@H](/C=C/[C@@H]1[C@@H](CCCCCCC(=O)OC)[C@@H](O)C[C@H]1OC(C)=O)OC(C)=O
classification: No

compound: CCC(O)CC[C@H](O)/C=C/[C@@H]1[C@@H](C/C=C\CCCC(=O)O)[C@@H](O)C[C@H]1O (some centres undefined)
classification: No

compound: CCCCC[C@@H](/C=C/[C@@H]1[C@@H](/C=C/CCCCC(=O)OC)[C@@H](O)C[C@H]1OC(C)=O)OC(C)=O
classification: No

compound: CCCCC[C@@H](/C=C/[C@@H]1[C@@H](C/C=C\CCCC(=O)OC)[C@@H](OC(C)=O)C[C@H]1OC(C)=O)OC(C)=O
classification: Yes

compound: CCC(CC[C@@H](/C=C/[C@@H]1[C@@H](C/C=C\CCCC(=O)OC)[C@@H](OC(C)=O)C[C@H]1OC(C)=O)OC(C)=O)OC(C)=O (some centres undefined)
classification: Yes

compound: CCC(=O)CC[C@@H](/C=C/[C@@H]1[C@@H](C/C=C\CCCC(=O)O)[C@@H](O)C[C@H]1OC(C)=O)OC(C)=O
classification: No

compound: CCC(CC[C@@H](/C=C/[C@@H]1[C@@H](C/C=C\CCCC(=O)OC)[C@@H](OC(C)=O)C[C@H]1OC(C)=O)OC(=O)[C@](OC)(c1ccccc1)C(F)(F)F)OC(C)=O (some centres undefined)
classification: No

compound: CCC(CC[C@@H](/C=C/[C@@H]1[C@@H](C/C=C\CCCC(=O)OC)[C@@H](OC(C)=O)C[C@H]1OC(C)=O)OC(=O)[C@@](OC)(c1ccccc1)C(F)(F)F)OC(C)=O (some centres undefined)
classification: No

compound: CCC(CC[C@@H](/C=C/[C@@H]1[C@@H](C/C=C\CCCC(=O)OC)[C@@H](O)C[C@H]1OC(C)=O)OC(C)=O)OC(C)=O (some centres undefined)
classification: No

compound: CCC(CC[C@H](O)/C=C/[C@@H]1[C@@H](C/C=C\CCCC(=O)OC)[C@@H](O)C[C@H]1OC(C)=O)OC(C)=O (some centres undefined)
classification: No

compound: CCCCC[C@@H](/C=C/[C@@H]1[C@@H](C/C=C\CCCC(=O)OC)[C@@H](O)C[C@H]1OC(C)=O)OC(C)=O
classification: Yes
